Tested on: H460^R231Q cells
Test: Cell proliferation assay
Type: cell-based, human
Conditions: Homo sapiens, 72 h, read-out: H460^R231Q (IC50, μmol/L)
Label Yes when IC50 < 50 µmol/L; otherwise No.

MOLECULE	CLASSIFICATION
CCN1CCN(C(=O)CN(C[C@H]2O[C@@H](n3cnc4c(N)ncnc43)[C@H](O)[C@@H]2O)C2CCN(Cc3nc4ccc(NC(=O)C(C)(C)C)cc4[nH]3)CC2)CC1	Yes
CCN(CC)CCCN(C[C@H]1O[C@@H](n2cnc3c(N)ncnc32)[C@H](O)[C@@H]1O)C1CCN(Cc2nc3ccc(NC(=O)C(C)(C)C)cc3[nH]2)CC1	No
CC(C)(C)C(=O)Nc1ccc2nc(CN3CCC(N(CC(=O)N4CCCC4)C[C@H]4O[C@@H](n5cnc6c(N)ncnc65)[C@H](O)[C@@H]4O)CC3)[nH]c2c1	Yes
CN(C)C(=O)CN(C[C@H]1O[C@@H](n2cnc3c(N)ncnc32)[C@H](O)[C@@H]1O)C1CC2CN(C(=O)Nc3ccc(NC(=O)C(C)(C)C)cc3)CC2C1 (some centres unmarked)	No
CC(C)N(C[C@H]1O[C@@H](n2cnc3c(N)ncnc32)[C@H](O)[C@@H]1O)C1CC2CN(C(=O)Nc3ccc(C(C)(C)C)cc3)CC2C1 (some centres unmarked)	Yes
COC(=O)CN(C[C@H]1O[C@@H](n2cnc3c(N)ncnc32)[C@H](O)[C@@H]1O)C1CC2CN(C(=O)Nc3ccc(NC(=O)C(C)(C)C)cc3)CC2C1 (some centres unmarked)	No
CC(C)(C)C(=O)Nc1ccc2nc(CN3CCC(N(CC(=O)NCc4ccco4)C[C@H]4O[C@@H](n5cnc6c(N)ncnc65)[C@H](O)[C@@H]4O)CC3)[nH]c2c1	No
CN(C)C(=O)CN(C[C@H]1O[C@@H](n2cnc3c(N)ncnc32)[C@H](O)[C@@H]1O)C1CCN(Cc2nc3cc(NC(=O)C(C)(C)C)ccc3[nH]2)CC1	No
CC(C)N(CCC1CC2CN(C(=O)Nc3ccc(Br)cc3)CC2C1)C[C@H]1O[C@@H](n2cnc3c(N)ncnc32)[C@H](O)[C@@H]1O (some centres unmarked)	No
CC(C)N(C[C@H]1O[C@@H](n2cnc3c(N)ncnc32)[C@H](O)[C@@H]1O)C1CC2CN(C(=O)Nc3ccc(NC(=O)C(C)(C)C)cc3)CC2C1 (some centres unmarked)	Yes
COC(=O)C1CCN(CCCN(C[C@H]2O[C@@H](n3cnc4c(N)ncnc43)[C@H](O)[C@@H]2O)C2CCN(Cc3nc4cc(NC(=O)C(C)(C)C)ccc4[nH]3)CC2)CC1	No

----------
Molecular target: DOT1L^WT (Homo sapiens, UniProt Q8TEK3)
Sequence (Q8TEK3 whole entry): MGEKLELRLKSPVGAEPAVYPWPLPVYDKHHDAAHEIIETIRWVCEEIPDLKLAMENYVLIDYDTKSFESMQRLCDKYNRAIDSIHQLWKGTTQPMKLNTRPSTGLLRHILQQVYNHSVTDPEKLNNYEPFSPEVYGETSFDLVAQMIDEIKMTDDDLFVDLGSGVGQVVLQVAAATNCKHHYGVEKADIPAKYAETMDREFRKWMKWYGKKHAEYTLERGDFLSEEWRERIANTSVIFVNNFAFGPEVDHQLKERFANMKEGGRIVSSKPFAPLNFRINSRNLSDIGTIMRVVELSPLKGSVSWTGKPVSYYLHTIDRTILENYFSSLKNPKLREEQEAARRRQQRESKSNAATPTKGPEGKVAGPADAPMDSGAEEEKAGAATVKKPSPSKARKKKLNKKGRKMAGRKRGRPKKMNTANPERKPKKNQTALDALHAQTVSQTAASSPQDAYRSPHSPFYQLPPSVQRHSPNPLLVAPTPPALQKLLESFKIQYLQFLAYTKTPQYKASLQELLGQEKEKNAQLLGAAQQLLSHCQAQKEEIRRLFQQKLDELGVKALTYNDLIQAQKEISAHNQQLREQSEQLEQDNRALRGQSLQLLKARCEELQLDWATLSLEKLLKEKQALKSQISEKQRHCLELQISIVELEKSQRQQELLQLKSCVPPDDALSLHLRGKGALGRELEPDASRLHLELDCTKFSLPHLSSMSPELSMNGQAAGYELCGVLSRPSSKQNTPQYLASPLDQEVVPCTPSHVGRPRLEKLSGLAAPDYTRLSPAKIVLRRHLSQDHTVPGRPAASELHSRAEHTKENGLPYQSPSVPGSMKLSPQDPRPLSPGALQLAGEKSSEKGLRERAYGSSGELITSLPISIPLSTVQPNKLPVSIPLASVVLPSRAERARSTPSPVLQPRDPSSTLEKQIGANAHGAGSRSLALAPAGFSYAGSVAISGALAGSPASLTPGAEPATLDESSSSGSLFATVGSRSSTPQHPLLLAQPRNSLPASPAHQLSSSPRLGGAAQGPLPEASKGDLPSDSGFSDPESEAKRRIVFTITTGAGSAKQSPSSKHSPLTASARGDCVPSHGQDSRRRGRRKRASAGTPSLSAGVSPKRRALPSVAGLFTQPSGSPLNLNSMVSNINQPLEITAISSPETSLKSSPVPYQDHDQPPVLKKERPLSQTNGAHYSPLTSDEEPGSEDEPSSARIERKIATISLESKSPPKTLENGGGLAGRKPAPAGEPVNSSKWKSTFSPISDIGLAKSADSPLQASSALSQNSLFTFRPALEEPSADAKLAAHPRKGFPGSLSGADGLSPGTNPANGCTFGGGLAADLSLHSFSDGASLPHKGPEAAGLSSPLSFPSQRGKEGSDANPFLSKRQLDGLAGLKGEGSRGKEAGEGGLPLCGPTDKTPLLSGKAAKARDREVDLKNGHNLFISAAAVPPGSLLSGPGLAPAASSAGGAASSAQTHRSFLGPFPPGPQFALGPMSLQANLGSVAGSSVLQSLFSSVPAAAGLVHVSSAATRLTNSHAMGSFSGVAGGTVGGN
READOUT: IC50 (nM)

                               smiles_entry  readout  data_value
0  CC(C)N(CCCNC(=O)Nc1ccc(C(C)(C)C)cc1)C[C@H]1O[C@@H](n2cc(Br)c3c(N)ncnc32)[C@H](O)[C@@H]1O     IC50        18.4

----------
Tested on: H460^R231Q cells
Experiment: Cell proliferation assay
Format: cell-based, human
Conditions: Homo sapiens, 72 h, read-out: H460^R231Q (IC50, μmol/L)
pIC50: −log10 of the molar value.
Let's look at some compounds and their measured pIC50.
READOUT: pIC50

>>> print(df.to_string())
                               smiles_entry       target_desc  data_value
0  CN(C[C@H]1O[C@@H](n2cnc3c(N)ncnc32)[C@H](O)[C@@H]1O)C1CCN(Cc2nc3cc(NC(=O)C(C)(C)C)ccc3[nH]2)CC1  H460^R231Q cells        4.46
1  CC(C)N(CCCNC(=O)Nc1ccc(C(C)(C)C)cc1)C[C@H]1O[C@@H](n2cc(Br)c3c(N)ncnc32)[C@H](O)[C@@H]1O  H460^R231Q cells        4.42
2  CCN1CCN(CCCN(C[C@H]2O[C@@H](n3cnc4c(N)ncnc43)[C@H](O)[C@@H]2O)C2CCN(Cc3nc4cc(NC(=O)C(C)(C)C)ccc4[nH]3)CC2)CC1  H460^R231Q cells        4.56
3  CC(C)(C)C(=O)Nc1ccc2[nH]c(CN3CCC(N(CCC(=O)N4CCS(=O)(=O)CC4)C[C@H]4O[C@@H](n5cnc6c(N)ncnc65)[C@H](O)[C@@H]4O)CC3)nc2c1  H460^R231Q cells        4.23
